# Test system: Carbapenem-resistant Acinetobacter baumannii (CRAB, Acinetobacter baumannii)
# test-protocol: Test Example 2: antibacterial activity test (MIC)
# Type: cell-based
# applied-conditions: ID-CAMHB, FDA-CDC AR-BANK #0070 (OXA-58, OXA-100, sul2), read-out: ID-CAMHB, MIC
# Protocol: 1. The test compounds were dissolved in sterile normal saline, vortexed for uniformly mixing, and diluted in a 2-fold dilution with the sterile normal saline (11 concentration points in total). The test concentration range was 32-0.031 μg/mL, and two duplicate wells were set for each concentration. Additional wells without drug dosing were set as growth controls. 2. […]
measured-parameter: MIC (µg/mL)

# molecule, value-prefix, experimental-value
measured = [
    ("CC(C)(O/N=C(\\C(=O)N[C@@H]1C(=O)N2C(C(=O)[O-])=C(C[N+]3(CC4(NC(=O)c5ccc(O)c(O)c5Cl)CC4)CCCC3)CS[C@H]12)c1csc(N)n1)C(=O)O", "=", 0.0625),
    ("CC(C)(O/N=C(\\C(=O)N[C@@H]1C(=O)N2C(C(=O)O)=C(C[N+]3(CCNC(=S)c4ccc(O)c(O)c4Cl)CCCC3)CS[C@H]12)c1csc(N)n1)C(=O)O", "=", 0.125),
    ("CC(C)(O/N=C(\\C(=O)N[C@@H]1C(=O)N2C(C(=O)O)=C(C[N+]3(CCNC(=O)c4ccc5cc(O)c(O)cc5c4)CCCC3)CS[C@H]12)c1csc(N)n1)C(=O)O", "=", 0.125),
    ("CC(C)(O/N=C(\\C(=O)N[C@@H]1C(=O)N2C(C(=O)O)=C(C[N+]3(CCNC(=N)c4ccc(O)c(O)c4Cl)CCCC3)CS[C@H]12)c1csc(N)n1)C(=O)O", ">", 32),
    ("CC(C)(O/N=C(\\C(=O)N[C@@H]1C(=O)N2C(C(=O)[O-])=C(C[N+]3(CCNC(=O)c4ccc(O)c(O)c4Cl)CCCC3)CS[C@H]12)c1csc(N)n1)C(=O)O [Cefiderocol, reference compound]", "=", 0.125),
    ("CC(=O)N(O)CC[N+]1(CC2=C(C(=O)O)N3C(=O)[C@@H](NC(=O)/C(=N\\OC(C)(C)C(=O)O)c4csc(N)n4)[C@H]3SC2)CCCC1", ">", 32),
    ("CC(C)(O/N=C(\\C(=O)N[C@@H]1C(=O)N2C(C(=O)O)=C(C[N+]3(CCN(CCCNC(=O)c4ccc(O)c(O)c4Cl)C(=O)c4ccc(O)c(O)c4Cl)CCCC3)CS[C@H]12)c1csc(N)n1)C(=O)O", "=", 0.125),
]

----------
# System: Carbapenem-resistant Enterobacteriaceae (CRE)
# test-protocol: Test Example 1: antibacterial activity test (MIC)
# Type: cell-based
# applied-conditions: CRE strain No. 100186
Collected MIC values appear next to each entry.

# compound, MIC
data = [
    ("CC(C)(O/N=C(\\C(=O)N[C@@H]1C(=O)N2C(C(=O)[O-])=C(C[N+]3(CCNC(=O)c4ccc(O)c(O)c4Cl)CCCC3)CS[C@H]12)c1csc(N)n1)C(=O)O [Cefiderocol, reference compound]", "0.5 µg/mL"),
    ("CC(C)(O/N=C(\\C(=O)N[C@@H]1C(=O)N2C(C(=O)[O-])=C(C[N+]3(CC4(NC(=O)c5ccc(O)c(O)c5Cl)CC4)CCCC3)CS[C@H]12)c1csc(N)n1)C(=O)O [Compound 2]", "1.5 µg/mL"),
    ("C[C@@H](O)[C@H]1C(=O)N2C(C(=O)O)=C(S[C@@H]3CN[C@H](C(=O)N(C)C)C3)[C@H](C)[C@H]12 [Meropenem, reference compound]", "> 32 µg/mL"),
    ("CC(C)(O/N=C(\\C(=O)N[C@@H]1C(=O)N2C(C(=O)[O-])=C(C[N+]3(CCCC[C@H](N)C(=O)O)CCCC3)CSC12)c1csc(N)n1)C(=O)O (stereo partly shown) [Compound 1]", "> 32 µg/mL"),
    ("CON(CC[N+]1(CC2=C(C(=O)O)N3C(=O)[C@@H](NC(=O)/C(=N\\OC(C)(C)C(=O)O)c4csc(N)n4)[C@H]3SC2)CCCC1)C(=O)c1ccc(O)c(O)c1Cl [Compound 3]", "6 µg/mL"),
    ("CC(C)(O/N=C(\\C(=O)N[C@@H]1C(=O)N2C(C(=O)O)=C(C[N+]3(CCNC(=S)Nc4ccc(O)c(O)c4Cl)CCCC3)CS[C@H]12)c1csc(N)n1)C(=O)O [Compound 4]", "> 32 µg/mL"),
    ("CC(C)(O/N=C(\\C(=O)N[C@@H]1C(=O)N2C(C(=O)O)=C(C[N+]3(CCN(O)C(=O)c4ccc(O)c(O)c4Cl)CCCC3)CS[C@H]12)c1csc(N)n1)C(=O)O [Compound 6]", "1.5 µg/mL"),
]

----------
# test-protocol: Test Example 3: pharmacokinetic study in cynomolgus monkeys
# Type: in vivo
# applied-conditions: both sexes, cynomolgus, cynomolgus monkey, plasma, iv, 10 mg/kg, 10 mg/kg single intravenous infusion, individual animals

# compound, AUC(0-inf) (ng·h/mL)
records = [
    ("CC(C)(O/N=C(\\C(=O)N[C@@H]1C(=O)N2C(C(=O)[O-])=C(C[N+]3(CCNC(=O)c4ccc(O)c(O)c4Cl)CCCC3)CS[C@H]12)c1csc(N)n1)C(=O)O [Cefiderocol, reference compound]", 32400),
    ("CC(C)(O/N=C(\\C(=O)N[C@@H]1C(=O)N2C(C(=O)O)=C(C[N+]3(CCN(CCCNC(=O)c4ccc(O)c(O)c4Cl)C(=O)c4ccc(O)c(O)c4Cl)CCCC3)CS[C@H]12)c1csc(N)n1)C(=O)O", 32900),
]

----------
# Tested on: Carbapenem-resistant Enterobacteriaceae (CRE)
# test-protocol: Test Example 1: antibacterial activity test (MIC)
# Type: cell-based
# applied-conditions: CRE strain No. 100109

# molecule, value-prefix, MIC, µg/mL
records = [
    ("C[C@@H](O)[C@H]1C(=O)N2C(C(=O)O)=C(S[C@@H]3CN[C@H](C(=O)N(C)C)C3)[C@H](C)[C@H]12 [Meropenem, reference compound]", ">", 32),
    ("CC(C)(O/N=C(\\C(=O)N[C@@H]1C(=O)N2C(C(=O)O)=C(C[N+]3(CCN(O)C(=O)c4ccc(O)c(O)c4Cl)CCCC3)CS[C@H]12)c1csc(N)n1)C(=O)O", "=", 2),
    ("CON(CC[N+]1(CC2=C(C(=O)O)N3C(=O)[C@@H](NC(=O)/C(=N\\OC(C)(C)C(=O)O)c4csc(N)n4)[C@H]3SC2)CCCC1)C(=O)c1ccc(O)c(O)c1Cl", "=", 3),
]

----------
# Test system: Carbapenem-resistant Enterobacteriaceae (CRE, Klebsiella pneumoniae)
# test-protocol: Test Example 2: antibacterial activity test (MIC)
# Type: cell-based
# applied-conditions: ID-CAMHB, FDA-CDC AR-BANK #0438 (aph(3′)-Ia, dfrA12, KPC-3, OmpK35, oqxA, oqxB, SHV-11), read-out: ID-CAMHB, MIC
Collected MIC values appear next to each entry.
measured-parameter: MIC (µg/mL)

# compound, value-prefix, experimental-value
data = [
    ("CC(C)(O/N=C(\\C(=O)N[C@@H]1C(=O)N2C(C(=O)O)=C(C[N+]3(CCN(CCCNC(=O)c4ccc(O)c(O)c4Cl)C(=O)c4ccc(O)c(O)c4Cl)CCCC3)CS[C@H]12)c1csc(N)n1)C(=O)O [Compound 10]", "=", 0.5),
    ("CC(C)(O/N=C(\\C(=O)N[C@@H]1C(=O)N2C(C(=O)[O-])=C(C[N+]3(CC4(NC(=O)c5ccc(O)c(O)c5Cl)CC4)CCCC3)CS[C@H]12)c1csc(N)n1)C(=O)O [Compound 2]", "=", 1),
    ("CC(C)(O/N=C(\\C(=O)N[C@@H]1C(=O)N2C(C(=O)O)=C(C[N+]3(CCNC(=N)c4ccc(O)c(O)c4Cl)CCCC3)CS[C@H]12)c1csc(N)n1)C(=O)O [Compound 9]", ">", 32),
]

----------
Collected MIC values appear next to each entry.
# System: Carbapenem-resistant Enterobacteriaceae (CRE)
# test-protocol: Test Example 1: antibacterial activity test (MIC)
# Assay type: cell-based
# applied-conditions: CRE strain No. 110525
# Experimental: The test compounds were diluted in a gradient and used for an MIC assay on the test strains. The test compounds at an initial assay concentration of 32 μg/mL were diluted in a 2-fold gradient (11 concentration points in total), and two duplicate wells were set for each concentration. Additional wells without drug dosing were set as growth controls. […] The 96-well plate was affixed with a disposable sealing film, shaken and mixed well, and visually observed using a plate reader. […]
measured-parameter: MIC (mg/L)

# compound, experimental-value
records = [
    ("CC(C)(O/N=C(\\C(=O)N[C@@H]1C(=O)N2C(C(=O)O)=C(C[N+]3(CCN(O)C(=O)c4ccc(O)c(O)c4Cl)CCCC3)CS[C@H]12)c1csc(N)n1)C(=O)O", 4),
    ("C[C@@H](O)[C@H]1C(=O)N2C(C(=O)O)=C(S[C@@H]3CN[C@H](C(=O)N(C)C)C3)[C@H](C)[C@H]12 [Meropenem, reference compound]", 32),
    ("CC(C)(O/N=C(\\C(=O)N[C@@H]1C(=O)N2C(C(=O)[O-])=C(C[N+]3(CC4(NC(=O)c5ccc(O)c(O)c5Cl)CC4)CCCC3)CS[C@H]12)c1csc(N)n1)C(=O)O", 2),
]
